Target of assay: T1, native human ApoC3 (human, UniProt P02656 21-99)
T1 construct: also called nhuApoC3; native huApoC3
T1 sequence (P02656 21-99): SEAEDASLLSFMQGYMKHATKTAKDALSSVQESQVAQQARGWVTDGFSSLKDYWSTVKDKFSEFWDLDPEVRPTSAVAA
Assay explanation: SPR, ApoC3 over captured IgG1, pH 7.4
Measure: Ka (M⁻¹)
Dear colleague, please return just the value in M⁻¹, with no unit written.

mAb6 (antibody, IgG1, V domains shown, Produced as full length IgG1 (kappa) in ExpiCHO-S cells; also called humanized anti-ApoC3 antibody mAb6) VH: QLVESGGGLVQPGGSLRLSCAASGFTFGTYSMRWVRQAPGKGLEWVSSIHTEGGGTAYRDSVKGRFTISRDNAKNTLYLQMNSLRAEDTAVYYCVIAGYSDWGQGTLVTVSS VL: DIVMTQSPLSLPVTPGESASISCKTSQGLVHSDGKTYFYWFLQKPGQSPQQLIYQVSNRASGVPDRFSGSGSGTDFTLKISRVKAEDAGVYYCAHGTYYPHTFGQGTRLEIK	6.08e+06

Fill in the blank: the reported Ka of mAb12 (antibody, IgG1, V domains shown, Produced as full length IgG1 (kappa) in ExpiCHO-S cells; also called humanized anti-ApoC3 antibody mAb12) VH: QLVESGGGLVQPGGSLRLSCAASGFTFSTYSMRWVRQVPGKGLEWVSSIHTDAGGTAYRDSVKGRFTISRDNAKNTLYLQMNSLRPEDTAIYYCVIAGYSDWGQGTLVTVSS VL: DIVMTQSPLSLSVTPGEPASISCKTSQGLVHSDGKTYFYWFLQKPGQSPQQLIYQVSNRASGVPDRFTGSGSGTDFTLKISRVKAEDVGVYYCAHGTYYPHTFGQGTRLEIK is ____. 3.12e+06

Fill in the blank: the reported Ka of mAb19 (antibody, IgG1, V domains shown, Produced as full length IgG1 (kappa) in ExpiCHO-S cells; also called humanized anti-ApoC3 antibody mAb19) VH: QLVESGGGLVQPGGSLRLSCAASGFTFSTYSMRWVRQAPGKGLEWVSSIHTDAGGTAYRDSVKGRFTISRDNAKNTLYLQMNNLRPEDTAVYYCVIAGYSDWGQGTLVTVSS VL: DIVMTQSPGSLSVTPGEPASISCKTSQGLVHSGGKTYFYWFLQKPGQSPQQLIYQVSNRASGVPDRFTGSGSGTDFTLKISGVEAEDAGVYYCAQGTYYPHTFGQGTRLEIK is ____. 2.82e+07

Fill in the blank: the reported Ka of mAb5 (antibody, IgG1, V domains shown, Produced as full length IgG1 (kappa) in ExpiCHO-S cells; also called humanized anti-ApoC3 antibody mAb5) VH: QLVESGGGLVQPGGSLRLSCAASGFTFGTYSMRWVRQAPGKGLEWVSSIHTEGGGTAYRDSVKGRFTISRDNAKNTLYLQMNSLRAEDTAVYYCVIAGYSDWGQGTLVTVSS VL: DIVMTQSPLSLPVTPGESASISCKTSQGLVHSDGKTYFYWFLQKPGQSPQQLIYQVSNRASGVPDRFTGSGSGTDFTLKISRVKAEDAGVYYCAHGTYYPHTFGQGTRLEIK is ____. 5.51e+06
